B1: library; a variant is named by its letters at N, in order (parent)
chain: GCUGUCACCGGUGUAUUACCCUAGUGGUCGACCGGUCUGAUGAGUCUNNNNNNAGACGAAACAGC

- Variants of: B1
- test: normalized RNA/DNA level with ligand (relative to sTRSVctl = 100) (log10 (% of sTRSVctl)); ligand: hypoxanthine (xanthine aptamer); higher = less ribozyme self-cleavage, higher mRNA level
- reported.conditions: ligand concentration (+) RNA-Seq: 5 mM, HEK293T, reporter: mCherry (pCS4076), ligand present: yes
readout.label: normalized RNA/DNA level with ligand (log10)

{"columns": ["variant.string", "measured.result"],
 "data": [
  ["UGCUUA", 1.94],
  ["UGGGCU", 2.05],
  ["GCGGAU", 1.86],
  ["UGUCGG", 1.9]
]}

The variant listed as CAAAAC has a reported normalized RNA/DNA level with ligand (log10) of 1.9

The variant listed as UGGACU has a reported normalized RNA/DNA level with ligand (log10) of 1.93

The variant listed as ACUCCC has a reported normalized RNA/DNA level with ligand (log10) of 1.96
